System: 282377-053-R-J1-PDC complex spheroid viability
Assay: Anticancer human tumor 282377-053-R-J1-PDC patient-derived colon adenocarcinoma cell line growth inhibition [POLQ]
Conditions: second compound 1 µM; first compound 3.16 µM; hits give low values
Listed next: entries and their corresponding viability, T/C.
Respond numerically; units are % and should not be typed.

Please review the entries below; each comes with its answer.
[
  {
    "compound": "CCCS(=O)(=O)Nc1ccc(F)c(C(=O)c2c[nH]c3ncc(-c4ccc(Cl)cc4)cc23)c1F + COC1C(OC(N)=O)C(O)C(Oc2ccc3c(O)c(NC(=O)c4ccc(O)c(CC=C(C)C)c4)c(=O)oc3c2C)OC1(C)C",
    "unit.of.measurement": "%",
    "viability, T/C": 66.5
  },
  {
    "compound": "COc1ccc([C@@H](O)c2cc(-c3ncnc4cc(N5CCOCC5)ccc34)c(F)cc2Cl)nn1 + Cc1cccc(N(C)C(=O)C2C(O)CCN2c2nc(C)cc(C(F)(F)F)c2C#N)c1",
    "unit.of.measurement": "%",
    "viability, T/C": 103
  },
  {
    "compound": "CCc1cc2c(N3CCc4c(cc(Cn5ccnc5)cc4-c4cn(C)nc4C(F)(F)F)C3=O)cc(C)nc2c(OC)n1 + Cc1cccc(N(C)C(=O)C2C(O)CCN2c2nc(C)cc(C(F)(F)F)c2C#N)c1",
    "unit.of.measurement": "%",
    "viability, T/C": 108
  },
  {
    "compound": "CC1COCCN1c1cc(C2(O)CC3CCC(C2)O3)c2cnn(-c3ccn[nH]3)c2n1 (stereo not given) + Nc1ccc(C#CCN(C(=O)Cc2ncc(C(F)(F)F)cc2C(F)(F)F)c2ccc(F)cc2)nn1",
    "unit.of.measurement": "%",
    "viability, T/C": 44.4
  }
]

What viability, T/C appears in the records for this compound with 282377-053-R-J1-PDC complex spheroid viability? O=C(c1cc(Cc2n[nH]c(=O)c3ccccc23)ccc1F)N1CCN(C(=O)C2CC2)CC1 + COC1C(OC(N)=O)C(O)C(Oc2ccc3c(O)c(NC(=O)c4ccc(O)c(CC=C(C)C)c4)c(=O)oc3c2C)OC1(C)C
106

###

System: 282377-053-R-J1-PDC complex spheroid viability
Assay: Anticancer human tumor 282377-053-R-J1-PDC cell line growth inhibition [POLQ];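 further: spheroids exposed to compounds for seven days; 100% = DMSO vehicle control viability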
Conditions: second compound 0.316 µM; first compound 0.0316 µM; hits give low values
Listed next: entries and their corresponding viability, T/C.
Respond numerically; units are % and should not be typed.

Please review the entries below; each comes with its answer.
[
  {
    "compound": "CCc1cc2c(N3CCc4c(cc(Cn5ccnc5)cc4-c4cn(C)nc4C(F)(F)F)C3=O)cc(C)nc2c(OC)n1 + Nc1ccc(C#CCN(C(=O)Cc2ncc(C(F)(F)F)cc2C(F)(F)F)c2ccc(F)cc2)nn1",
    "tgt": "282377-053-R-J1-PDC complex spheroid viability",
    "unit.of.measurement": "%",
    "observed.value": 96.6
  },
  {
    "compound": "CC[C@@]1(O)C(=O)OCc2c1cc1n(c2=O)Cc2cc3c(CN(C)C)c(O)ccc3nc2-1 + Nc1ccc(C#CCN(C(=O)Cc2ncc(C(F)(F)F)cc2C(F)(F)F)c2ccc(F)cc2)nn1",
    "tgt": "282377-053-R-J1-PDC complex spheroid viability",
    "unit.of.measurement": "%",
    "observed.value": 101
  }
]

For the compound shown here, CNCc1ccc(-c2[nH]c3cc(F)cc4c3c2CCNC4=O)cc1 + COC1C(OC(N)=O)C(O)C(Oc2ccc3c(O)c(NC(=O)c4ccc(O)c(CC=C(C)C)c4)c(=O)oc3c2C)OC1(C)C , give the reported viability, T/C.
104

For the compound shown here, CCCS(=O)(=O)Nc1ccc(F)c(C(=O)c2c[nH]c3ncc(-c4ccc(Cl)cc4)cc23)c1F + Nc1ccc(C#CCN(C(=O)Cc2ncc(C(F)(F)F)cc2C(F)(F)F)c2ccc(F)cc2)nn1 , give the reported viability, T/C.
81.5

For the compound shown here, C#Cc1c(F)ccc2cc(O)cc(-c3ncc4c(N5CC6CCC(C5)N6)nc(OCC56CCCN5CC(F)C6)nc4c3F)c12 (stereo not given) + COC1C(OC(N)=O)C(O)C(Oc2ccc3c(O)c(NC(=O)c4ccc(O)c(CC=C(C)C)c4)c(=O)oc3c2C)OC1(C)C , give the reported viability, T/C.
94

###

Tested on: 282377-053-R-J1-PDC complex spheroid viability
Test: Anticancer human tumor 282377-053-R-J1-PDC cell line growth inhibition [POLQ];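 further: spheroids exposed to compounds for seven days; 100% = DMSO vehicle control viability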
Details: second compound 10 µM; first compound 0.0316 µM; hits give low values
measured.metric: viability, T/C (%)
Respond numerically; units are % and should not be typed.

[
  {
    "compound": "O=c1[nH]cc(F)c(=O)[nH]1 + Nc1ccc(C#CCN(C(=O)Cc2ncc(C(F)(F)F)cc2C(F)(F)F)c2ccc(F)cc2)nn1",
    "observed.value": 123
  },
  {
    "compound": "O=C(c1cc(Cc2n[nH]c(=O)c3ccccc23)ccc1F)N1CCN(C(=O)C2CC2)CC1 + Cc1cccc(N(C)C(=O)C2C(O)CCN2c2nc(C)cc(C(F)(F)F)c2C#N)c1",
    "observed.value": 84.6
  },
  {
    "compound": "COc1cccc2c1C(=O)c1c(O)c3c(c(O)c1C2=O)CC(O)(C(=O)CO)CC3OC1CC(N)C(O)C(C)O1 (stereo unspecified) + Cc1cccc(N(C)C(=O)C2C(O)CCN2c2nc(C)cc(C(F)(F)F)c2C#N)c1",
    "observed.value": 95
  }
]

For the compound shown here, CC1COCCN1c1cc(C2(S(C)(=N)=O)CC2)nc(-c2ccnc3[nH]ccc23)n1 (stereo unspecified) + COC1C(OC(N)=O)C(O)C(Oc2ccc3c(O)c(NC(=O)c4ccc(O)c(CC=C(C)C)c4)c(=O)oc3c2C)OC1(C)C , give the reported viability, T/C.
104

For the compound shown here, COc1ccc([C@@H](O)c2cc(-c3ncnc4cc(N5CCOCC5)ccc34)c(F)cc2Cl)nn1 + Cc1cccc(N(C)C(=O)C2C(O)CCN2c2nc(C)cc(C(F)(F)F)c2C#N)c1 , give the reported viability, T/C.
87.9

For the compound shown here, CCCS(=O)(=O)Nc1ccc(F)c(C(=O)c2c[nH]c3ncc(-c4ccc(Cl)cc4)cc23)c1F + Cc1cccc(N(C)C(=O)C2C(O)CCN2c2nc(C)cc(C(F)(F)F)c2C#N)c1 , give the reported viability, T/C.
81.6

For the compound shown here, Cn1ncnc1[C@H]1c2n[nH]c(=O)c3cc(F)cc(c23)N[C@@H]1c1ccc(F)cc1 + Cc1cccc(N(C)C(=O)C2C(O)CCN2c2nc(C)cc(C(F)(F)F)c2C#N)c1 , give the reported viability, T/C.
81.5

For the compound shown here, CC1COCCN1c1cc(C2(O)CC3CCC(C2)O3)c2cnn(-c3ccn[nH]3)c2n1 (stereo unspecified) + COC1C(OC(N)=O)C(O)C(Oc2ccc3c(O)c(NC(=O)c4ccc(O)c(CC=C(C)C)c4)c(=O)oc3c2C)OC1(C)C , give the reported viability, T/C.
101

For the compound shown here, COc1ccc([C@@H](O)c2cc(-c3ncnc4cc(N5CCOCC5)ccc34)c(F)cc2Cl)nn1 + COC1C(OC(N)=O)C(O)C(Oc2ccc3c(O)c(NC(=O)c4ccc(O)c(CC=C(C)C)c4)c(=O)oc3c2C)OC1(C)C , give the reported viability, T/C.
102

For the compound shown here, C=CCn1c(=O)c2cnc(Nc3ccc(N4CCN(C)CC4)cc3)nc2n1-c1cccc(C(C)(C)O)n1 + Cc1cccc(N(C)C(=O)C2C(O)CCN2c2nc(C)cc(C(F)(F)F)c2C#N)c1 , give the reported viability, T/C.
93.7

For the compound shown here, O=C(Nc1ccc(O)c(NS(=O)(=O)c2ccc(F)cc2)c1)c1ccc(-c2ccccc2)cc1 + COC1C(OC(N)=O)C(O)C(Oc2ccc3c(O)c(NC(=O)c4ccc(O)c(CC=C(C)C)c4)c(=O)oc3c2C)OC1(C)C , give the reported viability, T/C.
127

For the compound shown here, COc1cccc(OCCCN)c1-c1cc(Nc2cnc(C#N)cn2)n[nH]1 + COC1C(OC(N)=O)C(O)C(Oc2ccc3c(O)c(NC(=O)c4ccc(O)c(CC=C(C)C)c4)c(=O)oc3c2C)OC1(C)C , give the reported viability, T/C.
70.1

For the compound shown here, Cn1ncnc1[C@H]1c2n[nH]c(=O)c3cc(F)cc(c23)N[C@@H]1c1ccc(F)cc1 + COC1C(OC(N)=O)C(O)C(Oc2ccc3c(O)c(NC(=O)c4ccc(O)c(CC=C(C)C)c4)c(=O)oc3c2C)OC1(C)C , give the reported viability, T/C.
105

For the compound shown here, CNCc1ccc(-c2[nH]c3cc(F)cc4c3c2CCNC4=O)cc1 + Nc1ccc(C#CCN(C(=O)Cc2ncc(C(F)(F)F)cc2C(F)(F)F)c2ccc(F)cc2)nn1 , give the reported viability, T/C.
113

For the compound shown here, Nc1ccn(C2OC(CO)C(O)C2(F)F)c(=O)n1 (stereo unspecified) + Nc1ccc(C#CCN(C(=O)Cc2ncc(C(F)(F)F)cc2C(F)(F)F)c2ccc(F)cc2)nn1 , give the reported viability, T/C.
124

For the compound shown here, COc1cc2cc(C(=O)CCC(=O)O)sc2cc1OC + Nc1ccc(C#CCN(C(=O)Cc2ncc(C(F)(F)F)cc2C(F)(F)F)c2ccc(F)cc2)nn1 , give the reported viability, T/C.
126

For the compound shown here, CCc1cc2c(N3CCc4c(cc(Cn5ccnc5)cc4-c4cn(C)nc4C(F)(F)F)C3=O)ccnc2c(OC)n1 + Nc1ccc(C#CCN(C(=O)Cc2ncc(C(F)(F)F)cc2C(F)(F)F)c2ccc(F)cc2)nn1 , give the reported viability, T/C.
95.5

For the compound shown here, C=CC(=O)N1CCN(c2nc(=O)n(-c3c(C)ccnc3C(C)C)c3nc(-c4c(O)cccc4F)c(F)cc23)C(C)C1 (stereo unspecified) + COC1C(OC(N)=O)C(O)C(Oc2ccc3c(O)c(NC(=O)c4ccc(O)c(CC=C(C)C)c4)c(=O)oc3c2C)OC1(C)C , give the reported viability, T/C.
106

For the compound shown here, COc1ccc([C@@H](O)c2cc(-c3ncnc4cc(N5CCOCC5)ccc34)c(F)cc2Cl)nn1 + Nc1ccc(C#CCN(C(=O)Cc2ncc(C(F)(F)F)cc2C(F)(F)F)c2ccc(F)cc2)nn1 , give the reported viability, T/C.
122

For the compound shown here, C=CC(=O)N1CCN(c2nc(=O)n(-c3c(C)ccnc3C(C)C)c3nc(-c4c(O)cccc4F)c(F)cc23)C(C)C1 (stereo unspecified) + Nc1ccc(C#CCN(C(=O)Cc2ncc(C(F)(F)F)cc2C(F)(F)F)c2ccc(F)cc2)nn1 , give the reported viability, T/C.
112

For the compound shown here, CCc1c2c(nc3ccc(O)cc13)-c1cc3c(c(=O)n1C2)COC(=O)[C@]3(O)CC + Cc1cccc(N(C)C(=O)C2C(O)CCN2c2nc(C)cc(C(F)(F)F)c2C#N)c1 , give the reported viability, T/C.
49.5
